B1: STK38L (parent)
chain: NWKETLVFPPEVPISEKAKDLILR

variants of: B1; experiment: protein stability index of a GFP-peptide fusion (GPS, HEK-293T) (PSI 1-6); higher = more stable; details: c terminus: a fixed tail appended;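 note: lentivirally expressed fusions sorted by FACS into six bins by GFP to DsRed ratio, PSI derived from sequencing read proportions per bin multiplied by bin number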
Below, each entry is listed with its recorded protein stability index.

biopolymer sequence	protein stability index
NWKETSVFPPEVPISEKAKDLILR [L6S]	3.62
NWTETLVFPPEVPISEKAKDLILR [K3T]	3.23
NWKETDVFPPEVPISEKAKDLILR [L6D]	3.93
NWKETLVFPPEVPISEKAKDLVLR [I22V]	3.06
NWKETLVFPPEVPRSEKAKDLILR [I14R]	3.44
NWKEALVFPPEVPISEKAKDLILR [T5A]	3.27
NWKETLVFPPEVPISEEAKDLILR [K17E]	3.32
NWKETLVFPPEVEISEKAKDLILR [P13E]	3.1
NWKETLVFPPEVPISEKAKVLILR [D20V]	2.23
NWKETLVFPPNVPISEKAKDLILR [E11N]	2.69
NWKETLVFPPEVPISEKAKDSILR [L21S]	3.72
NWKETLVFPPEVPISEKAKDRILR [L21R]	3.62
NWKETLVFPPEVPISSKAKDLILR [E16S]	2.33
NWKETLLFPPEVPISEKAKDLILR [V7L]	3.65
NWKETLVFPPEVPHSEKAKDLILR [I14H]	2.84
NWKETLVFPPEVPISEKAKDYILR [L21Y]	2.71
NWKETLVFPPEVPISEKAKWLILR [D20W]	1.92
NWKETLVFPPEVPISEKAKDLILL [R24L]	2.03
NWNETLVFPPEVPISEKAKDLILR [K3N]	3.46
NWKSTLVFPPEVPISEKAKDLILR [E4S]	2.32
NWKETLVFPPEVPISEKAKYLILR [D20Y]	1.8
NWKETLVFPPEVPISEKIKDLILR [A18I]	1.89
NWLETLVFPPEVPISEKAKDLILR [K3L]	2.02
NWKETLVFPPEVPISEKAKDLNLR [I22N]	3.62
NWKETLVFPPEVPCSEKAKDLILR [I14C]	3.19
